Here the recorded viability at 72 h, 100 µM is given for each entry.
- PROTOCOL_TEXT: MTT cytotoxicity assay, PNT-2 cells
- Assay type: cell-based, human
- PROTOCOL_CONDITIONS: human, PNT-2 prostate non-cancer cells, 100 µM, 72 h, read-out: Viability at 100 µM, % of Control, PNT-2 Cells
The response must be a number in % with no trailing unit.

Worked cases, viability at 72 h, 100 µM given:
CC(=O)OC/C(C)=C1\CC[C@]23CO[C@H](C2)[C@@](O)(C(=O)O)CC[C@@H]13 | 82.9
COC(=O)C1(O)CCC2C(=C(C)CO)CCC23COC1C3 (stereo not drawn) | 80.4
C[C@H]1CCC[C@H](C[C@H]2Cc3cc(O)cc(O)c3C(=O)O2)O1 | 88.1
C=C(C)C1(O)CCC23COC(C2)C(O)(C(=O)O)CCC31 (stereo not drawn) | 80.7
CC1OC(CC2Cc3cc(O)cc(O)c3C(=O)O2)CCC1O (stereo not drawn) [Compound 9, 5’-hydroxyasperentin] | 55.5

Pending compound:
So for CC(CO)=C1CCC23COC(C2)C(O)(C(=O)O)CCC13 (stereo not drawn) , the logged viability at 72 h, 100 µM turned out to be 97.2
